target: T1, hCMV gB (expressed in HEK293T cells) (human cytomegalovirus, UniProt P06473 32-906); test: competitor: 2B11-biotin; cell staining
T1 construct: whole, on cells; also called envelope glycoprotein B; UL55
T1 sequence (P06473 32-906 limits assumed): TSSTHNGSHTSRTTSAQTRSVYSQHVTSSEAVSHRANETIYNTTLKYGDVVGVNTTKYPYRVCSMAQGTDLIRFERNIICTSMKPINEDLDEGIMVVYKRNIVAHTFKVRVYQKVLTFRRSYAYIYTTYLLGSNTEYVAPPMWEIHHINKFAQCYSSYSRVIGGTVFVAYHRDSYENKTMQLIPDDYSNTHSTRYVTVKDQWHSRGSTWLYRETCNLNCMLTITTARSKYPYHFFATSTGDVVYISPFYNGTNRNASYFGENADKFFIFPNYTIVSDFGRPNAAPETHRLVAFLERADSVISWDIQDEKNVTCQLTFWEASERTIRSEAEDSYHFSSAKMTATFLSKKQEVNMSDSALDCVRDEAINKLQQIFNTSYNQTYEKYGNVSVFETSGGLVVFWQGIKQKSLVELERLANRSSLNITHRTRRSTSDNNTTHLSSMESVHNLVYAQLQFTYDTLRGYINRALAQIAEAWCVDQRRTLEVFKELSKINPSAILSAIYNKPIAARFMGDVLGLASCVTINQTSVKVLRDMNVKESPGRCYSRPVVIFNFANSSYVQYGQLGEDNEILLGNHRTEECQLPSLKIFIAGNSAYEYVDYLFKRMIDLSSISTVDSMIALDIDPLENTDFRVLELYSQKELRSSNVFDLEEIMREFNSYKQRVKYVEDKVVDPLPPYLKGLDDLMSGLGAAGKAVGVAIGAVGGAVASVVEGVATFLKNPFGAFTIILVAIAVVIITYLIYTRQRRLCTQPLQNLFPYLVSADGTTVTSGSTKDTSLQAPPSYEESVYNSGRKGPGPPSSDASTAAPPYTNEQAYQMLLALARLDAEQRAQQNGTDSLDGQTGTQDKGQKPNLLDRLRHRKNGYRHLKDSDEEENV
Property name: Inhibition of binding (%)
Report as a plain number; the unit % is understood.

Note to self: Inhibition of binding (%) recorded for 6B4 (antibody, V domains shown, human IgG; also called 6B4-biotin) VH: QVQLVESGGGVVQPGRSLRLSCAASGFRFNEFNMHWVRQAPGKGLEWVAVISIDGRHKYNADSVEGRFTISRDNSRNTLYLQMNSLRVEDTALYYCVTDGKAVDGFSGILEFWGQGTPVTVST VL: EIVLTQSPATLSLSPGERATLSCWASQSVGGYLAWYQQKPGQAPRLLIYDASIRATGIPARFSGSGSGTHFTLTINSLEPEDFAVYYCQQRNNWPPLTFGGGTKVEIK was 0

The reported Inhibition of binding (%) of the binder 5F1 (antibody, V domains shown, human IgG; also called 5F1-biotin) VH: AVQLVESGGGLAQPGRSLRLSCKVSGFTFSSYEMNWVRQAPGKGLEWIAYIDFTGSTIYYADSVKGRFTISRDTARNSLYLQMNKLRVEDTAVYYCVRDAGRWGTSWYYFDYWGQGTLVTVSS VL: QSVLTQPPSVSGAPGQRVTISCTGLSSNIGAGYDIHWYQQIPGKAPKLLIYGNNNRPSGVPDRFSGSKSGTSVSLAITGLQAEDEADYYCQSYDSSLNGWVFGGGTRLTVL was 100

Lab note: measured Inhibition of binding (%) of 10C6 (antibody, V domains shown, human IgG; also called 10C6-biotin) VH: AVQLVESGGGLAQPGRSLRLSCKVSGFSFSNFEMNWVRQAPGKGLEWIAYIDFTGSTIYYSDSVKGRFTISRDTARNSLYLQMNKLRVEDTAVYYCVRDAGRWGTSWYYFDYWGQGTLVTVSS VL: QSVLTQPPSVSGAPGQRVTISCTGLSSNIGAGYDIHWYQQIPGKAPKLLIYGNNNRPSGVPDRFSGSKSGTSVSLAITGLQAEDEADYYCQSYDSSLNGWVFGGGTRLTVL was 100

Reference for the values: patent US20170129940A1
